Test: gradient 5% acetonitrile 3 min, to 50% in 2 min, to 85% in 15 min, held 3 min, 100 µL/min
Conditions: column: Zorbax Extend-C18 2.1 x 50 mm; eluents: water / acetonitrile, 0.1% formic acid
TEST READOUT: RP-LC retention time (s)
I only need the number, in s, no unit after it.

Known results for compounds:
What value of RP-LC retention time has been recorded for this entry: Cc1ccc2c(c1)N(S(C)(=O)=O)CCC(C(=O)Nc1c(C)cccc1C)O2 (stereo not drawn) 930

Find the recorded RP-LC retention time belonging to "CN(C)S(=O)(=O)c1ccc(-c2nnc(C(=O)NC3CCCCC3)o2)cc1" and report it. 886

Continuing:
Please report the recorded RP-LC retention time for "CC1(C)C(=O)NCCN1C(=O)c1cccc(Br)c1" . 649

Report RP-LC retention time for "O=C(CCc1nc2sc3c(c2c(=O)[nH]1)CCCCC3)N1CCN(c2ccccn2)CC1" please. 603

// returns reported RP-LC retention time for input "COc1ccc(NC(=O)CSc2nc3ccccc3o2)c(OC)c1" 896

Any idea what RP-LC retention time was measured for c1ccc(OCCC2CCN(Cc3ccc4[nH]ccc4c3)C2)cc1 (stereo not drawn) ? 726

Fill blank: measured RP-LC retention time of the compound "CCn1nnnc1NCc1ccc2c(c1)n(C)c(=O)n2C" is ____. 617

Sample "O=C(Nc1ccccc1)Nc1c(-c2ccccc2)nc2ccccn12" — what was its RP-LC retention time? 636

RP-LC retention time for "Cc1cc(S(=O)(=O)N2CCN(c3cnn4c(C)nnc4c3)CC2)ccc1F" ? 708

RP-LC retention time lookup needed for "Cc1cc(C)cc(-c2nc(-c3cccc(-c4ccn[nH]4)c3)no2)c1" , thanks. 999

RP-LC retention time for "COc1cccc(-c2csc(-c3nnn(-c4cccc(Cl)c4)c3N)n2)c1" ? 1170

Tell me the measured RP-LC retention time of "CCN1C(=O)COc2ccc(-c3nc(NC(=O)c4cccnc4)sc3C)cc21" , please. 784

Bench note: what RP-LC retention time did CC1CCCCN1S(=O)(=O)c1ccc(C(=O)Nc2nc3c(s2)CCc2ccccc2-3)cc1 (stereo not drawn) show? 1270

What value of measured RP-LC retention time is listed for "CCNc1nc(N2CCCC2)nc(-n2cnc(SC)n2)n1" ? 885

What value of RP-LC retention time has been recorded for this entry: "N#Cc1ccc(NC(=O)C2CCN(S(=O)(=O)c3cc(-c4noc(C5CCC5)n4)cs3)CC2)cc1" 1050

Which RP-LC retention time is listed for CC(C)(C)C(O)CCNC(=O)Cc1cccs1 (stereo not drawn) ? 673

Request the reported RP-LC retention time associated with "Cc1ccccc1CNC1=NCCNC12CCN(S(=O)(=O)c1ccccc1C)CC2" 729

State the recorded RP-LC retention time for this entry: "Cn1c(N2CCCN(C(=O)c3ccc(Br)o3)CC2)cc(=O)n(C)c1=O" 653

====

Test: gradient 5% acetonitrile 3 min, to 50% in 2 min, to 85% in 15 min, held 3 min, 100 µL/min
Conditions: column: Zorbax Extend-C18 2.1 x 50 mm; eluents: water / acetonitrile, 0.1% formic acid
Readings of RP-LC retention time for the listed compounds
Give just the numeric value; s need not be written.

Quick check: RP-LC retention time of "Cc1ccc(CNC(=O)c2cc(-c3ccncc3)cn2C)cc1C" ? 672

Any idea what its RP-LC retention time is? The compound is "CCn1cnc2ccc(-c3noc(COc4ccccc4C)n3)cc21" 807

Quick check: RP-LC retention time of c1ccc(C2CN3CCSC3=N2)cc1 (centres undefined) ? 618

Read the next record carefully.
Please give the measured RP-LC retention time for this compound: "COc1ccc(Cl)cc1NC(=O)CCc1c(-c2ccc(F)cc2)nc2ccccn12" 724
